- Test system: Huh-7 luc/neo ET cells
- TEST SUMMARY: Cytotoxicity in the replicon cells (staining with STT)
- Assay type: cell-based
- MEASUREMENT CONTEXT: 72 hours, read-out: HCV Replicon CC50
Attribute: CC50

Query string: Find the recorded CC50 belonging to CC(C)OC(=O)[C@H](C)NP(=O)(OC[C@@]1(F)O[C@@H](n2cnc3c(N(C)C4CC4)nc(N)nc32)[C@](C)(F)C1O)Oc1ccccc1 (some centres unmarked) [Cmpd 4] and report it.
Result string: > 10 µM

Would you kindly look at the next entry?
Query string: Find the recorded CC50 belonging to CC(C)OC(=O)[C@H](C)NP(=O)(OC[C@@]1(F)O[C@@H](n2cnc3c(N(C)C4CC4)nc(N)nc32)[C@](C)(F)C1O)Oc1ccccc1 (some centres unmarked) [Cmpd 15] and report it.
Result string: > 50 µM
